B1: Retinoic acid receptor beta, residues 85 to 161; numbered along this chain, P10826 (parent)
chain: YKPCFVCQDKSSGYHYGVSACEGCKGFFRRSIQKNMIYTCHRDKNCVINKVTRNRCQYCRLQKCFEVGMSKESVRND

- Variants of: B1
- run-description: abundance fitness (aPCA) (normalised: wild type 0, dead -1); higher = more abundant; growth selection in yeast, the domain comes from the species named
- condition-info: Homo sapiens
measurement-name: abundance fitness
Please respond with just the number, no unit label.

Which abundance fitness value belongs to `F28Q` ? -0.807

Which abundance fitness value belongs to `K34A` ? 0.003

Which abundance fitness value belongs to `N54E` ? 0.217

Which abundance fitness value belongs to `Y1E` ? -0.109

Which abundance fitness value belongs to `F27Q` ? -0.97

Which abundance fitness value belongs to `C7E` ? -1.23

Which abundance fitness value belongs to `K2V` ? -0.104

Which abundance fitness value belongs to `M36R` ? -0.064

Which abundance fitness value belongs to `R42P` ? -1.01

Which abundance fitness value belongs to `S31A` ? -0.121

Which abundance fitness value belongs to `M36A` ? 0.132

Which abundance fitness value belongs to `Y58I` ? -0.898

Which abundance fitness value belongs to `I48P` ? -0.417

Which abundance fitness value belongs to `Q62D` ? -0.107

Which abundance fitness value belongs to `G23Y` ? -0.452

Which abundance fitness value belongs to `G17T` ? -0.242

Which abundance fitness value belongs to `Q8N` ? -0.035

Which abundance fitness value belongs to `Y1Q` ? -0.132

Which abundance fitness value belongs to `R30A` ? -0.935
